Origin of values: the RNAGym collection of RNA variant scans (doi:10.7554/elife.80360)

B1: Twister Ribozyme (parent)
chain: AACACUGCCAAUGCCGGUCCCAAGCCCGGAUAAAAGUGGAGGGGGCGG

- Variants of: B1
- EXPERIMENTAL PROTOCOL: self-cleavage, relative activity (ratio to wild type); higher = more cleavage; co-transcriptional
EXPERIMENTAL ENDPOINT: self-cleavage
Give bare numbers.

Before answering, review these 3 worked examples.
[[record]]
mutant_name = "A30C A34C"
numeric_readout = 0.0893

[[record]]
mutant_name = "G24A A40U"
numeric_readout = 0.112

[[record]]
mutant_name = "G13U A33G"
numeric_readout = 0.68


Okay, here is my list. What is self-cleavage for each of these?
1. A23U G24C
2. C3G A35U
3. C15G G47U
4. G24A G42C
5. C9U A34C
6. A22C G36C
7. C14G C46A
8. C8A U18A

Outgoing:
1: 0.109; 2: 0.488; 3: 0.0543; 4: 0.0923; 5: 0.131; 6: 0.345; 7: 0.078; 8: 0.111
